Please provide measured fractional viability for the entries that follow.
- Test system: TYKNU
- Experimental details: fractional viability relative to vehicle; higher = less growth inhibition
- Run conditions: 10uM; 72 h; genotype: DNM1L knockout (sgDNM1L #1)
The full ranking holds about 2,000 compounds; the median of “fractional viability relative to vehicle” is about 0.91, and the lowest 2% start at about 0.045. The sample holds the lowest values, similar compounds and a random draw of the others, so the mix is not that of the screen.
Form: value (number only, do not type unit).

input: Form field: reported fractional viability of C[C@@H](Oc1cc(-c2cnn(C3CCNCC3)c2)cnc1N)c1c(Cl)ccc(F)c1Cl
output: 0.128

input: # repeat for CC(=O)c1cc2c(o1)C(=O)c1ccccc1C2=O
output: 0.018

input: Same again, this time with c1nc2c(NC3CCCCC3)nc(Nc3ccc(N4CCOCC4)cc3)nc2[nH]1
output: 0.229

input: Try CC(C)(O)CC[C@@H](O)[C@](C)(O)[C@H]1CC[C@@]2(O)C3=CC(=O)[C@@H]4C[C@@H](O)[C@@H](O)C[C@]4(C)[C@H]3CC[C@]12C [20-Hydroxyecdysone] next.
output: 0.84

input: Then Nc1[nH]nc2nnc(-c3c(-c4ccccc4)nn4ccccc34)cc12 ?
output: 1.04

input: Also C=CC(=O)Nc1ccc2ncnc(Nc3cccc(Br)c3)c2c1 ?
output: 0.248

input: Further, for O=C([C@@H](Cc1cccc(C(F)(F)F)c1)NS(=O)(=O)c1cc(F)c2c(c1)CCNC2)N1CCCC1 ?
output: 0.863

input: // repeat for C=CC(=O)Nc1cccc(Nc2nc(Nc3ccc(NC4CN(CCF)C4)cc3OC)ncc2C(F)(F)F)c1 and report
output: 0.164

input: // repeat for C=CCc1cccc(/C=N/NC(=O)CN2CCN(Cc3ccccc3)CC2)c1O and report
output: 0.277

input: Can you handle CC[C@@H]([C@H](C)O)n1ncn(-c2ccc(N3CCN(c4ccc(OC[C@@H]5CO[C@@](Cn6cncn6)(c6ccc(F)cc6F)C5)cc4)CC3)cc2)c1=O next?
output: 0.868

input: For Cc1ncc(Cl)cc1NCc1ccc(C(=O)N[C@@H](CC2CCCC2)C(=O)NC2CC2)s1 then?
output: 0.838

input: Repeat for the following molecule: c1cc(-c2cnn3cc(-c4ccc(OCCN5CCCCC5)cc4)cnc23)ccn1
output: 0.552

input: Also C=CC(=O)Nc1ccc2ncnc(Nc3ccc(OCc4cccc(F)c4)c(Cl)c3)c2c1 ?
output: 0.044

input: Further, for COc1cccc(C=NCCN=Cc2cccc(OC)c2[O-])c1[O-].[Cl-].[Mn+3] ?
output: 0.756

input: What do you get for CS(=O)(=O)CCNCc1ccc(-c2ccc3ncnc(Nc4ccc(OCc5cccc(F)c5)c(Cl)c4)c3c2)o1 ?
output: 0.179

input: Now consider CN(C)CC[C@H](CSc1ccccc1)Nc1ccc(S(=O)(=O)NC(=O)c2ccc(N3CCN(Cc4ccccc4-c4ccc(Cl)cc4)CC3)cc2)cc1[N+](=O)[O-] .
output: 0.544

input: And what about the molecule O=S(=O)(N=Cc1c(O)ccc2ccccc12)c1cccs1 ?
output: 0.696

====

- Tested on: TYKNU
- Experimental details: fractional viability relative to vehicle; TYKNU is a high-grade serous ovarian cancer line; higher = less growth inhibition
- Run conditions: 10uM; 72 h; genotype: sgCTRLA1 (non-targeting control)
Whole data set: some 2,000 compounds, median “fractional viability relative to vehicle” near 0.91, cut for the lowest 2% near 0.045. This excerpt belongs to a sample that is enriched for the lowest values.
Measurement type: fractional viability
// print number alone

input: Give the reported fractional viability for CCN(CC)CCCC(C)Nc1nc(C)cc(Nc2ccc3nc(C)cc(N)c3c2)n1 (centres undefined) (system: TYKNU).
output: 0.667

input: What about N#C/C(=C(/N)Sc1ccc(N)cc1)c1ccccc1C(F)(F)F ?
output: 0.785

input: Now give it for O=C([C@@H](Cc1cccc(C(F)(F)F)c1)NS(=O)(=O)c1cc(F)c2c(c1)CCNC2)N1CCCC1 too.
output: 0.888

input: Quick one: Cc1nc(Nc2cnn(C3CCNCC3)c2)nc2c1N(C)C(=O)c1cc3ccccc3cc1N2C
output: 0.51

input: Same lookup for C[C@@]1(C(=O)Nc2ccc(F)nc2)CCCN1c1nc(Nc2cc(C3CC3)n[nH]2)c2cccn2n1 , please.
output: 0.252

input: Same question for Clc1cccc(-c2nnnn2Cc2cccnc2)c1Cl please.
output: 0.73

input: Param item: CC(C)C[C@H](NC(=O)CNC(=O)c1cc(Cl)ccc1Cl)B1OC(=O)C(CC(=O)O)(CC(=O)O)O1
output: 0.0756

input: Further, for Nc1[nH]nc2nnc(-c3c(-c4ccccc4)nn4ccccc34)cc12 ?
output: 0.887

input: Param item: CCN(CC)CCCC(C)Nc1c2ccc(Cl)cc2nc2ccc(OC)cc12 (centres undefined) [Quinacrine 2HCl]
output: 0.0211
